# Test system: PARP-1 F1+F2 (24-kDa DBD) (Homo sapiens, UniProt P09874 1-214)
# Sequence (P09874 1-214): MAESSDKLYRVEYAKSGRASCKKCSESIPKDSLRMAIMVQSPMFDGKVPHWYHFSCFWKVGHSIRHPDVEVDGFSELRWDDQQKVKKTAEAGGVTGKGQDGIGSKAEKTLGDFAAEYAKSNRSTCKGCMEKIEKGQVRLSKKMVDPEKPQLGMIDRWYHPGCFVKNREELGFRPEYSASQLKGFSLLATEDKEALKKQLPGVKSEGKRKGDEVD
# Assay method text: fluorescence anisotropy; 75; 50 mM Tris-HCl pH 7.0, 150 uM ZnSO4, 4 mM DTT, 25 C; NaCl 0-200 mM (T2, as in cof; 10 nM DNA) or 25 mM (T3 mutants; 25 nM DNA)
# Condition label: protein: recombinant; label: fluorescein-dT at T8 and T30; circular closed dumbbell, two tetraloops, no nick
Assay metric: Kd (nM)

binder="CGGTCGATCGTAAGATCGACCGCGGTCGATCGTAAGATCGACCG (structured_DNA, circular, nick sealed by T4 DNA ligase) [ligated (circular) symmetric 44-nt dumbbell, 2x fluorescein-dT]" measured_number=480
